Reference source for all entries: paper PMC5622107

System: 45-bp dsDNA
measurement-description: DNA intercalation: acridine orange displacement from dsDNA by fluorescence polarization
Type: binding
condition-context: Supplementary Table 2; acridine orange displacement compared to mitoxantrone
Reported % intercalation at 30 µM is given for each of the following compounds.
Form entry: value (%) — number only.

- compound: "N#Cc1ccc(/C=C2\\CS(=O)(=O)c3c(F)cccc3C2=O)cc1 [RU198755]"
  % intercalation at 30 µM / %: -6.2
- compound: "N#CCC(=O)Nc1sc2c(c1C(N)=O)CCCC2 [RU93687]"
  % intercalation at 30 µM / %: -5.8
- compound: "COC(=O)C1=NN2C(=NS(=O)(=O)c3ccccc32)N1 [RU209189]"
  % intercalation at 30 µM / %: 0.0
- compound: "O=c1cc(CCn2cccn2)nc(-c2ccc(CN3CCC[C@@H]3CO)cc2)[nH]1 [RU234543]"
  % intercalation at 30 µM / %: -9.3
- compound: "O=C(Nc1nncs1)c1cn(-c2ccccc2Br)nn1 [RU191669]"
  % intercalation at 30 µM / %: -1.0

May I ask what % intercalation at 30 µM has been recorded for O=C(O)COc1cc(Cl)c(Cl)cc1Cl [RU1535] ?
3.4

May I ask what % intercalation at 30 µM has been recorded for O=[N+]([O-])c1cc([As](=O)(O)O)ccc1O [RU297] ?
-9.8

May I ask what % intercalation at 30 µM has been recorded for CCOC(=O)c1n[nH]c2c1C(=O)N(CC)C2=O [RU4893] ?
-1.4

May I ask what % intercalation at 30 µM has been recorded for N#CC1=C(N)SC(N)=C(C#N)C1c1ccc([N+](=O)[O-])cc1 [RU107796] ?
-7.6

May I ask what % intercalation at 30 µM has been recorded for N#Cc1cc(I)c(O)c([N+](=O)[O-])c1 [RU187299] ?
-2.8

---

target: mouse cGAS (Mus musculus, UniProt Q8C6L5)
Construct: recombinant full-length mouse cGAS in reaction buffer; His6-SUMO (N, cleaved yes); made in house; host or cells: E. coli BL21(DE3) RIL
Sequence (Q8C6L5 whole entry): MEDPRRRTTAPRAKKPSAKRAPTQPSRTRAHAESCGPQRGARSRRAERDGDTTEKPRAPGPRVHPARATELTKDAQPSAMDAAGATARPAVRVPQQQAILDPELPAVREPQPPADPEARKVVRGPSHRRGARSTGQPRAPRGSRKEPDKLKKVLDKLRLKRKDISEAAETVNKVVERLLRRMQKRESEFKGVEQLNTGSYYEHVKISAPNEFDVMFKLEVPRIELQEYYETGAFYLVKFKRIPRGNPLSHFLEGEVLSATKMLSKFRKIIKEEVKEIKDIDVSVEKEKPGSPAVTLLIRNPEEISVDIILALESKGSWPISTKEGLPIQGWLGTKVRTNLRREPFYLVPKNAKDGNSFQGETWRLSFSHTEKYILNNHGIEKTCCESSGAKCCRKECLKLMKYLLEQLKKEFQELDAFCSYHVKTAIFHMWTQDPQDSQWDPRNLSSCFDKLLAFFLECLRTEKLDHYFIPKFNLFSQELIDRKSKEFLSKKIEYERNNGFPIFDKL
measurement-description: RapidFire mass spectrometry (RF-MS) cGAS enzymatic assay, cGAMP product formation
Format: biochemical
condition-context: Supplementary Table 3; analogs more potent than RU166365; read-out: IC50
Procedure: The liquid was collected at the well bottom using centrifugation for 30 s at 180×g. […] Plates were centrifuged for 30 s at 180×g to collect all liquid at the bottom of the wells. […] The solvent used for loading/washing process was an aqueous solution of 5 mM ammonium acetate, pH 10. […] All samples were analyzed using a negative ionization mode in the mass spectrometer, with a gas temperature of 350 °C, nebulizer pressure of 35 psig, gas flow rate of 15 l min^−1. […]
parameter: IC50
Please append the unit to your numeric answer.

Here are 4 compounds together with their reported answers.
- compound: "Cc1nn(-c2nc3cccc(C)c3[nH]2)c(O)c1C1OC(=O)c2ccccc21 (centres unmarked) [RU320519]"
  parameter: "IC50"
  observed-result: "1.16 µM"
- compound: "Cc1ccc2nc(-n3nc(C)c(C4OC(=O)c5ccccc54)c3O)[nH]c2c1 (centres unmarked) [RU320461]"
  parameter: "IC50"
  observed-result: "0.86 µM"
- compound: "Cc1nn(-c2nc3ccc(Cl)c(Cl)c3[nH]2)c(O)c1C1OC(=O)c2ccccc21 (centres unmarked) [RU320521]"
  parameter: "IC50"
  observed-result: "0.11 µM"
- compound: "Cc1nn(-c2nc3ccccc3s2)c(O)c1C1OC(=O)c2ccccc21 (centres unmarked) [RU281332]"
  parameter: "IC50"
  observed-result: "1.79 µM"

Alright, here's another compound for you.
Return IC50 measured with mouse cGAS (Mus musculus, UniProt Q8C6L5) given this compound: Cc1nn(-c2nc3ccc(Br)cc3[nH]2)c(O)c1C1OC(=O)c2ccccc21 (centres unmarked) [RU320462]
0.64 µM

---

target: cGAS/dsDNA complex (Mus musculus)
Construct: full-length (for high-throughput screening) and residues 147–507 (for structural study) of cGAS; His6-SUMO (N, cleaved yes); made in house; host or cells: E. coli BL21(DE3) RIL
Sequence (Q8C6L5 147-507, one chain of several): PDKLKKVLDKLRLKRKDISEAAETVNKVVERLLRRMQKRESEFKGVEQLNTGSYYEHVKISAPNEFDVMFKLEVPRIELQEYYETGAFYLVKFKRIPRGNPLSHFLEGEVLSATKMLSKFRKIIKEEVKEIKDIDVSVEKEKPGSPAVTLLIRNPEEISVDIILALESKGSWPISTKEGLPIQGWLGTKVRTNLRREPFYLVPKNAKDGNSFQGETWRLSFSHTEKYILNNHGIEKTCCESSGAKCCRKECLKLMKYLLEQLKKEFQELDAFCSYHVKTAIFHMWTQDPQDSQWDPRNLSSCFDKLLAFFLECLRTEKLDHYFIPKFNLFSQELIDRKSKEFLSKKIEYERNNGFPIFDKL
measurement-description: Isothermal titration calorimetry, compound titrated into cGAS/dsDNA complex
Assay type: binding
condition-context: cGAS/dsDNA + 1 mM ATP
parameter: Kd (nM)
Form entry: value (nM) — number only.

May I ask what Kd has been recorded for Cc1nn(-c2nc3ccccc3[nH]2)c(O)c1C1OC(=O)c2ccccc21 (stereo not shown) ?
104

---

target: mouse cGAS (Mus musculus)
Construct: recombinant full-length mouse cGAS in reaction buffer; His6-SUMO (N, cleaved yes); made in house; host or cells: E. coli BL21(DE3) RIL
measurement-description: RapidFire mass spectrometry (RF-MS) cGAS enzymatic assay, cGAMP product formation
Format: biochemical
condition-context: Supplementary Table 2; batch of compounds stored in the screening library; read-out: IC50
# IC50 binned as category 1: < 1 µM; category 2: ≥ 1 µM and < 6 µM; category 3: ≥ 6 µM

Previously resolved entries follow.
- molecule: "OCc1cn(-c2ccccc2Cl)nn1"
  label: "category 2"
- molecule: "O=C(COc1ccc(Cl)c2ccccc12)Nc1ncccc1O"
  label: "category 1"
- molecule: "Cc1ccc(C(=O)c2nc3c(n2O)CCCCC3)cc1"
  label: "category 1"
- molecule: "O=C(O)C1CSC(c2cc(Br)c(O)c(Br)c2)N1 (stereo not drawn)"
  label: "category 2"
- molecule: "Cc1nc2nc(C)c(Br)c(O)n2n1"
  label: "category 3"
- molecule: "O=c1cc(CCn2cccn2)nc(-c2ccc(CN3CCC[C@@H]3CO)cc2)[nH]1"
  label: "category 3"
- molecule: "COc1cccc2c1C(=O)c1c(O)c3c(c(O)c1C2=O)C[C@@](O)(C(C)=O)C[C@@H]3OC1CC(N)C(O)C(C)O1 (stereo partly drawn)"
  label: "category 1"
- molecule: "O=C(O)COc1cc(Cl)c(Cl)cc1Cl"
  label: "category 1"

Textbook exercise: identify the category of the molecule given here, `N#Cc1cc(I)c(O)c([N+](=O)[O-])c1` , according to its measured value.
category 1

Textbook exercise: identify the category of the molecule given here, `CS(=O)(=O)c1ncc2c(n1)c(=O)c(C#N)c1[nH]c3ccccc3c(=O)n12` , according to its measured value.
category 2

Textbook exercise: identify the category of the molecule given here, CCN(CC)CCCC(C)Nc1c2ccc(Cl)cc2nc2ccc(OC)cc12 (stereo not drawn) , according to its measured value.
category 3

Textbook exercise: identify the category of the molecule given here, `COC(=O)C1=NN2C(=NS(=O)(=O)c3ccccc32)N1` , according to its measured value.
category 2

Textbook exercise: identify the category of the molecule given here, `N#Cc1ccc(/C=C2\CS(=O)(=O)c3c(F)cccc3C2=O)cc1` , according to its measured value.
category 3

Textbook exercise: identify the category of the molecule given here, `O=C1N=C(N2CCCCC2)SC1=C1C(=O)Nc2ccccc21` , according to its measured value.
category 1

Textbook exercise: identify the category of the molecule given here, `O=C(CCl)Nc1nc(-c2c[nH]c3ccccc23)cs1` , according to its measured value.
category 2

---

Reported % intercalation at 30 µM is given for each of the following molecules.
Tested on: 45-bp dsDNA
measurement-description: DNA intercalation: acridine orange displacement from dsDNA by fluorescence polarization
Format: binding
condition-context: Supplementary Table 2; acridine orange displacement compared to mitoxantrone
Form entry: value (%) — number only.

Here are 5 molecules together with their reported answers.
- molecule: "O=C1NC(=S)SC1=Cc1ccccc1F"
  target: "45-bp dsDNA"
  parameter: "% intercalation at 30 µM"
  observed-result: -9.8
- molecule: "O=C1c2c(O)ccc(O)c2C(=O)c2c(NCCNCCO)ccc(NCCNCCO)c21"
  target: "45-bp dsDNA"
  parameter: "% intercalation at 30 µM"
  observed-result: 102.5
- molecule: "Cc1nnc(NC(=O)c2ccc(S(=O)(=O)Nc3cccc(C(F)(F)F)c3)o2)s1"
  target: "45-bp dsDNA"
  parameter: "% intercalation at 30 µM"
  observed-result: 5.6
- molecule: "OCc1cn(-c2ccccc2Cl)nn1"
  target: "45-bp dsDNA"
  parameter: "% intercalation at 30 µM"
  observed-result: -1.3
- molecule: "O=[N+]([O-])c1ccc(O)c([N+](=O)[O-])c1"
  target: "45-bp dsDNA"
  parameter: "% intercalation at 30 µM"
  observed-result: -4.7

May I ask what % intercalation at 30 µM has been recorded for `O=C1N=C(N2CCCCC2)SC1=C1C(=O)Nc2ccccc21` ?
-8.9

May I ask what % intercalation at 30 µM has been recorded for `Cc1ccc(C(=O)c2nc3c(n2O)CCCCC3)cc1` ?
-0.3

May I ask what % intercalation at 30 µM has been recorded for `O=C(O)c1cc(O)c2c(c1)[C@@H]([C@H]1c3cc(C(=O)O)cc(O)c3C(=O)c3c(O[C@H]4O[C@H](CO)[C@@H](O)[C@H](O)[C@H]4O)cccc31)c1cccc(O[C@H]3O[C@H](CO)[C@@H](O)[C@H](O)[C@H]3O)c1C2=O` ?
-13.5
